These entries and their values trace back to patent US20250304707A1.

Target: biotinylated human BCMA (human) (UniProt Q02223)
Sequence (Q02223 1-54 limits assumed): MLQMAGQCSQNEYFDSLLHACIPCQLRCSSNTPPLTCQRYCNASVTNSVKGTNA
Test: BLI (Octet RED384), biotinylated human BCMA on SAX sensors, scFv 1200 nM analyte, 1:1 model
experimental.endpoint: Response (nm)
Give the value, in units of nm, as a plain number.

Enquiry: Please give the documented Response of 01-025 (scFv) (scFv, part only; not given: linker, domain order, Myc-His tags, V domains shown, not shown: another chain or arm of the molecule; small tags and cut ends) VH: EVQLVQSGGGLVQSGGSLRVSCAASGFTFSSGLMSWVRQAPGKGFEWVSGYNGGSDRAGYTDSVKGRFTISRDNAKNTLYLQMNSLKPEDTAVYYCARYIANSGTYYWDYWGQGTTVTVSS VL: QPVLTQPPSVSEAPRQRVTISCSGSSSNIGNNAVNWYQQLPGKAPKLLIYSTNQRPSGVPDRFSGSKSGTSASLAISGLQSEDEADYYCAAWDDRVSAWLFGGGTKLTVL
Return: 0.183
